Reference source: patent US20200283528A1

Recorded measurements of IC50, one per entry
system.tested: T1, human PDL1 (recombinant, soluble) (human, UniProt Q9NZQ7 19-238)
T1 construct: also called hPDL1; hPD-L1
assay.explanation: PDL1/B7-1 competition ELISA; B7-1 coated; scFv
Reply with just the number (in ng/mL).

# annotated cases, reported IC50 shown
PRO997/PRO908 (37-20-B03-sc01 scFv) (scFv, VL-linker-VH, VH4 CDR graft; PRO997 was made in CHO-S cells, PRO908 in bacteria; also called 37-20-B03 CDR) scFv: DIQMTQSPSSLSASVGDRVTITCQASQSIGTYLAWYQQKPGKAPKLLIYRAFILASGVPSRFSGSGSGTDFTLTISSLQPEDFATYYCQSNFYSDSTTIGPNAFGTGTKVTVLGGGGGSGGGGSGGGGSGGGGSQVQLQESGPGLVKPSETLSLTCKVSGFSFNSDYWIYWIRQPPGKGLEWIGSIYGGSSGNTQYASWAQGRVTISVDSSKNQFSLKLSSVTAADTAVYYCARGYVDYGGATDLWGQGTLVTVSS :: 1.21
PRO1183 (33-03-G02-sc03 scFv) (scFv, also called 33_03_G02 sc03 Full) scFv: DFQLTQSPSSLSASVGDRVTITCQASQSINDYLAWYQQKPGKSPKLLIYKASTLASGVPSRFSGSGSGTDFTLTISSLQPEDFATYYCQQGYIITDIDNVFGTGTKVTVLGGGGGSGGGGSGGGGSGGGGSQSQLQESGPGLVKPSETLSLTCKASGFSFSSGYDMCWVRQPPGKGLEWIACVVAGSVDITYYASWAKGRVTISKDSSKNQVSLKLSSVTAADTAVYFCARKDAYSDAFNLWGQGTLVTVSS :: 0.977
PRO830 (33-03-G02-sc01 scFv) (scFv, also called 33-03-G02 CDR) scFv: DIQMTQSPSSLSASVGDRVTITCQASQSINDYLAWYQQKPGKAPKLLIYKASTLASGVPSRFSGSGSGTDFTLTISSLQPEDFATYYCQQGYIITDIDNVFGTGTKVTVLGGGGGSGGGGSGGGGSGGGGSQVQLQESGPGLVKPSETLSLTCKVSGFSFSSGYDMCWIRQPPGKGLEWIGCVVAGSVDITYYASWAKGRVTISVDSSKNQFSLKLSSVTAADTAVYYCARKDAYSDAFNLWGQGTLVTVSS :: 6.11

query: Form field: reported IC50 of PRO1392 (33-03-G02-sc18 scFv) (scFv) scFv: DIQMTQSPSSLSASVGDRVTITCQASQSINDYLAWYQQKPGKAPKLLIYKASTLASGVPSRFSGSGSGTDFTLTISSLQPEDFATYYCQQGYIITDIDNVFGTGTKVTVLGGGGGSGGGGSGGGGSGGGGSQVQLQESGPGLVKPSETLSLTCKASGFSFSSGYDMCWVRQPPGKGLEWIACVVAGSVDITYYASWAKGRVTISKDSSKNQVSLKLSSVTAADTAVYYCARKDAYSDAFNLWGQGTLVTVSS
result: 1.19
